# TEST METHOD NOTES: Selectivity index, ratio of IC50 for TNF-alpha-stimulated human U1 cells to EC50 for X4 tropic HIV1 NL4-3 infected in TNF-alpha-stimulated human U1 cells
# Format: toxicity, cell-based
# SETUP CONDITIONS: with X4 tropic HIV1 NL4-3, read-out: Ratio IC50/EC50
VALUE TYPE: selectivity ratio
Answer with the value's number alone.

Given C/C=C(\C)C(=O)c1c(OC)c2c(c3c(CCC)cc(=O)oc13)OC(C)(C)C=C2 , respond with its selectivity ratio.
1.95
